Here, each record is paired with measured protein stability index data.
B1: VAMP4 (parent)
chain: IMALVAAILLLVIIILIVMKYRT

Variants of: B1
Experiment: protein stability index of a GFP-peptide fusion (GPS, HEK-293T) (PSI 1-6); higher = more stable;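 further: lentivirally expressed fusions sorted by FACS into six bins by GFP to DsRed ratio, PSI derived from sequencing read proportions per bin multiplied by bin number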
Conditions: c terminus: native

[
  {
    "mutation.notation": "V12C",
    "protein stability index": 2.97
  },
  {
    "mutation.notation": "I14S",
    "protein stability index": 3.02
  },
  {
    "mutation.notation": "I8V",
    "protein stability index": 3.04
  }
]

These data points were gathered from the supplement of paper PMC10567573.
